Source of measurements: paper PMC6556873

target: PCAF (Homo sapiens, UniProt Q92831); construct: gene KAT2B; set-up: Intact protein LC/MS covalent labelling, fragments in pools of five, 200 uM each, 4 °C; conditions: 24 h, 4 °C, pool of five; 200 µM; covalent
Sequence (Q92831 whole entry, the tested form may be a part): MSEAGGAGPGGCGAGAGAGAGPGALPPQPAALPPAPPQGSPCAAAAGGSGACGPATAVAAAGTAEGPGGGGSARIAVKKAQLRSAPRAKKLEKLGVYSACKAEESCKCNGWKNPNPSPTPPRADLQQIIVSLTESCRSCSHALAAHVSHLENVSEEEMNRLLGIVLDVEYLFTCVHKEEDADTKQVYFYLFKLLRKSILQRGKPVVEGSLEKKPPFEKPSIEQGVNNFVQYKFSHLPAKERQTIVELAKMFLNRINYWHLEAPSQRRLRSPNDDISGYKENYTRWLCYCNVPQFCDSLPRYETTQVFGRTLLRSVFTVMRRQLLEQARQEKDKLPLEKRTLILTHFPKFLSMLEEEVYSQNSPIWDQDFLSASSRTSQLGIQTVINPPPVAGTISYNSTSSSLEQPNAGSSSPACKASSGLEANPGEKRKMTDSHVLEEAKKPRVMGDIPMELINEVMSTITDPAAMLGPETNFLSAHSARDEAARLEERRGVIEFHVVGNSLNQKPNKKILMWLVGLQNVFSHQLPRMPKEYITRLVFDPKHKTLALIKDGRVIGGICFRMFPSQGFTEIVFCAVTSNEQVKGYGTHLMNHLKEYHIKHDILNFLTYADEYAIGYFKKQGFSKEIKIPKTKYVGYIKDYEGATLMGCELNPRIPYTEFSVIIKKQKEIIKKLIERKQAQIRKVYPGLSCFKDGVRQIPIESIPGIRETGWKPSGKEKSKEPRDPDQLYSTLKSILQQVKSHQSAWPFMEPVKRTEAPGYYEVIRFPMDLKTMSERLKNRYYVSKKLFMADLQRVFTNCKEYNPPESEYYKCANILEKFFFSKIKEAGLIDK
value_type: PCAF
Answer as a number with no unit attached.

For orientation, consider the following solved cases.
C=CC(=O)N1CCCC2(CNC(=O)O2)C1 (stereo not drawn) [PCM-0102808]: 0
N#CC(c1ccc(F)cc1)N1CCN(C(=O)CCl)CC1 (stereo not drawn) [PCM-0102341]: 0
Cc1ccc(NC(=O)CCl)cc1Br [PCM-0102955]: 0
O=C(CCl)NC1CCN(C(=O)c2ccco2)CC1 [PCM-0102619]: 0
O=C(CCl)Nc1ccccc1I [PCM-0102509]: 0
C=CC(=O)NCC1CCCS1 (stereo not drawn) [PCM-0102719]: 0

Form field PCAF, entry O=C(CCl)NC(=O)C1COc2ccccc2O1 (stereo not drawn) [PCM-0102462] : 0

----------
test: in vitro; design: species or system HB2, HEK293; conditions: human, ccd841 cells
value_type: viability at 48 h, 10 µM (%)
Field: numeric (%). Do not append units.

O=C(CCl)N1CCC(c2nc3ccccc3s2)CC1: 46
O=C(CCl)Nc1ccc([N+](=O)[O-])cc1C(F)(F)F: 83.1
Cc1c(C#N)c(NC(=O)CCl)n(-c2cccc(F)c2)c1C: 47.1
Cc1ccc(-c2nnc(C)[nH]2)c(NC(=O)CCl)c1: 45
C=CC(=O)N1CCC(C(=O)O)(c2ccccc2)CC1: 98.8

Then this compound:
Reported viability at 48 h, 10 µM of CN(C(=O)CCl)C1CCCc2ccccc21 (stereo not drawn) : 25.8

----------
viability at 48 h, 10 µM by entry:
assay: in vitro; parameters: species or system CCD841, HEK293; settings: human, hb2 cells, read-out: HB-2 Cells Viability (%)
Give your result in % as a bare value.

CS(=O)(=O)c1ccccc1NC(=O)CCl [PCM-0102141]: 96.8
O=C(CCl)NCc1cccs1 [PCM-0102280]: 94.3
CC(c1ccc(F)cc1)N(C)C(=O)CCl (centres unmarked) [PCM-0102783]: 47.3
O=C(CCl)NC1CCC(C(F)(F)F)CC1 (centres unmarked) [PCM-0102864]: 99.2
O=C(O)C1Cc2ccccc2CN1C(=O)CCl (centres unmarked) [PCM-0102761]: 98.1
Cc1cccc(C(=O)O)c1NC(=O)CCl [PCM-0102167]: 101
O=C(CCl)Nc1nnn[nH]1 [PCM-0102778]: 102
CC(c1nc2ccccc2s1)N(C)C(=O)CCl (centres unmarked) [PCM-0102793]: 4.3
C=CC(=O)N1CCCc2ccccc21 [PCM-0102549]: 111
COC(=O)C1(NC(=O)CCl)CCC(C)CC1 (centres unmarked) [PCM-0102827]: 102

What the record says about C=CC(=O)N1CCC(n2ncc3ccccc32)C1 (centres unmarked) [PCM-0102966] : viability at 48 h, 10 µM is 105

Sure, the documented viability at 48 h, 10 µM for CCOC(=O)C1CCCN(C(=O)CCl)C1 (centres unmarked) [PCM-0103015] is 104

Short answer for C=CC(=O)NC(=O)NCc1ccccc1 [PCM-0102834] : viability at 48 h, 10 µM was 23

Form field viability at 48 h, 10 µM, entry CC1Cc2cc(S(N)(=O)=O)ccc2N1C(=O)CCl (centres unmarked) [PCM-0102207] : 58.7

viability at 48 h, 10 µM recorded for this compound, CC(NC(=O)CCl)c1ccc(Br)cc1 (centres unmarked) [PCM-0102374] , is 63.8

# viability at 48 h, 10 µM (compound: C=CC(=O)NCc1cc(F)c(C(F)(F)F)cc1F [PCM-0103078] ) is 101

get_value(item= CS(=O)(=O)c1ccc(F)c(NC(=O)CCl)c1 [PCM-0103018] , readout=viability at 48 h, 10 µM) returns 57.6

Notebook: O=C(CCl)Nc1cc2c(cc1Cl)OCCCO2 [PCM-0102331] , viability at 48 h, 10 µM read as 17.2

For reference, reported viability at 48 h, 10 µM for Cc1nnc(NC(=O)CCl)o1 [PCM-0102147] stands at 102

GET /value?item= CN(Cc1nc2ccccc2s1)C(=O)CCl [PCM-0102988] &field=viability at 48 h, 10 µM returns 9.3

Reported viability at 48 h, 10 µM ( Cc1ccc(C)c(S(=O)(=O)N2CCN(C(=O)CCl)CC2)c1 [PCM-0102353] ) = 2.1

Note to self: viability at 48 h, 10 µM recorded for O=C(CCl)Nc1ccccc1C(F)(F)F [PCM-0102170] was 96.7

# viability at 48 h, 10 µM (compound: O=C(CCl)NCc1cc(F)cc(F)c1 [PCM-0102790] ) is 98.6

----------
Entries and their NUDT7
molecular target: NUDT7 (Homo sapiens, UniProt P0C024); construct: residues 14-235, E. coli, pNIC28-Bsa4, N-terminal His6 tag removed by TEV, construct 26672 Da; parameters: Intact protein LC/MS covalent labelling, fragments in pools of five, 200 uM each, 4 °C; details: 24 h, 4 °C, pool of five; 200 µM; covalent
Sequence (P0C024 14-235): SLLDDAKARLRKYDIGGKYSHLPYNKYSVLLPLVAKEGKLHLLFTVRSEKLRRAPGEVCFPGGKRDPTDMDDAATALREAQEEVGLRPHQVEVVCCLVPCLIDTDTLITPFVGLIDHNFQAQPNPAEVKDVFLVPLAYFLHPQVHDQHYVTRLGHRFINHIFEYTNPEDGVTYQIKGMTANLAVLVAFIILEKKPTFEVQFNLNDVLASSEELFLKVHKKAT
No unit in the answer, please; the number alone is enough.

Illustrative cases are given below, each with its answer.
CN(CCC#N)C(=O)CCl [PCM-0102712]: 0
CN(CC1CC1)C(=O)CCl [PCM-0102714]: 0

Observed NUDT7 on NUDT7 (Homo sapiens, UniProt P0C024), entry O=C(CCl)N1CCN(c2ncc(C(F)(F)F)cc2Cl)CC1 [PCM-0102378] , equals 0.14

The measured NUDT7 that Cc1ccc(NC(=O)CCl)c(F)c1 [PCM-0103028] showed for NUDT7 (Homo sapiens, UniProt P0C024) is 0

The observed NUDT7 for C=CC(=O)Nc1ccc(F)c(F)c1 [PCM-0102385] when tested with NUDT7 (Homo sapiens, UniProt P0C024) stands at 0

Bench note, NUDT7 (Homo sapiens, UniProt P0C024): entry C=CC(=O)N1CCCC(S(=O)(=O)N2CCOCC2)C1 (stereo not shown) [PCM-0102849] , its NUDT7 = 0

Lab entry: NUDT7 (Homo sapiens, UniProt P0C024) assay, compound O=C(CCl)Nc1c(Cl)cccc1Cl [PCM-0102234] , NUDT7 = 0.64

----------
Target: OTUB2 (OTUB2A) (Homo sapiens, UniProt Q96DC9)
Construct: full length residues 1-234, E. coli BL21(DE3)-R3, His tag removed by TEV, construct 27312 Da
Sequence (Q96DC9 1-234): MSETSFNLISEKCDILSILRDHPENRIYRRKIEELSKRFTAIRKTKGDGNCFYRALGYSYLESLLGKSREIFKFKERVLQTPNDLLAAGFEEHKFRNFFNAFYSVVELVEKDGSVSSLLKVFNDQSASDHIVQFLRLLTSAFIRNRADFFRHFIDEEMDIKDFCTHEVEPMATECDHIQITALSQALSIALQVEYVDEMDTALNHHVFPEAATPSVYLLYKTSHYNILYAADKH
Set-up: Intact protein LC/MS covalent labelling, fragments in pools of five, 200 uM each, 4 °C
Details: 24 h, 4 °C, pool of five; 200 µM; covalent
This listing pairs compounds with measured OTUB2.
Format: numeric value only, no unit, no commentary.

// known answers, use as guide
C=CC(=O)N1CCCC(n2nc(C)nc2C)C1 (stereo not shown): 0
Cc1nc(NC(=O)CCl)sc1C: 0
CC1CCC(N(C)C(=O)CCl)CC1 (stereo not shown): 0
Cc1cc([N+](=O)[O-])ccc1NC(=O)CCl: 0.11
C=CC(=O)NC1CCOC2(CCS(=O)(=O)C2)C1 (stereo not shown): 0
C=CC(=O)N1CCc2sccc2C1c1cccs1 (stereo not shown): 0
C=CC(=O)Nc1nc(C)cc(C)n1: 0
CN(Cc1ccc2c(c1)OCCO2)C(=O)CCl: 0.09

OTUB2 reported for this compound O=C(CCl)Nc1cc(C(=O)O)ccc1Cl : 0

# OTUB2 of Cc1csc(NC(=O)CCl)n1.Cl = 0

Please fill in: OTUB2 reported for Cc1csc(CC(=O)NNC(=O)CCl)n1.Cl = 0.51

The compound identified as O=C(CCl)NC1CCS(=O)(=O)C1 (stereo not shown) registered its OTUB2 at 0

Note to self: OTUB2 recorded for COc1ccc2nc(NC(=O)CCl)sc2c1 was 0

----------
experiment: in vitro; parameters: species or system HB2, CCD841; details: human, hek293 cells
viability at 48 h, 10 µM values by entry
Write the number in % without appending the unit.

CC(C)(C)c1ccc(C(=O)NNC(=O)CCl)cc1 [PCM-0102355]: 53.7
O=C(CCl)Nc1cc2c(cc1Cl)OCCCO2 [PCM-0102331]: 10.3
COC(=O)c1c(NC(=O)CCl)sc2c1CCCC2 [PCM-0102143]: 8.6
COC(=O)c1ccc(C)c(NC(=O)CCl)c1 [PCM-0103027]: 22.1

The molecule listed as C=CC(=O)NC(C)(C)c1cc(C(F)(F)F)on1 [PCM-0102528] has a reported viability at 48 h, 10 µM of 104

The recorded viability at 48 h, 10 µM for entry C=CC(=O)N1CCC(c2noc(C3CC3)n2)CC1 [PCM-0102810] equals 94.1

Just so you know, measured viability at 48 h, 10 µM for NC(=O)c1ccccc1NC(=O)CCl [PCM-0102758] came out at 53.5

Summary for this molecule, C=CC(=O)N1CCCN(Cc2cn3cc(Cl)ccc3n2)CC1 [PCM-0102565] : viability at 48 h, 10 µM is 105

Data point: Cc1ccc(NC(=O)CCl)cc1Cl [PCM-0102208] ; viability at 48 h, 10 µM = 1.2

The reported viability at 48 h, 10 µM of the molecule O=C(CCl)Nc1ccccc1Br [PCM-0102312] was 92.9
